Hey, just so you know, these numbers are from patent US11975040B2.

# assay-system: T1, human Plexin B1 (human, UniProt O43157 20-535, limits assumed)
# T1 sequence (looked up): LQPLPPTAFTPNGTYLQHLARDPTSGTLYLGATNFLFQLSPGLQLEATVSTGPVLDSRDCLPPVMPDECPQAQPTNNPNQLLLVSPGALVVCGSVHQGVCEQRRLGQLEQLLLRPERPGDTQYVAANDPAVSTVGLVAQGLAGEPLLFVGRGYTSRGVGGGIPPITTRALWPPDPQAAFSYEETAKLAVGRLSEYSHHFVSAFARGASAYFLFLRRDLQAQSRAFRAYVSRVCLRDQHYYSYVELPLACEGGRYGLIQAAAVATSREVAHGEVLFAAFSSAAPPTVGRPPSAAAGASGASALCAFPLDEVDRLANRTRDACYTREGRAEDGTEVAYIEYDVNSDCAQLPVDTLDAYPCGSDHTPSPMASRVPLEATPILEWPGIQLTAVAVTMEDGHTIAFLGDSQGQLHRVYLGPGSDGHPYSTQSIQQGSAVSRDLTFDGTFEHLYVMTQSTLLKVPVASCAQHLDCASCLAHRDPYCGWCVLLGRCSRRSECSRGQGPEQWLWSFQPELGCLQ
# test-method-notes: SPR
Positions of bridges follow the written chain, without caps; N, C: chain ends. Non-standard residues stand in square brackets, D forms with d. No end group written: not given here.
// assign 1 (yes) if koff falls strictly below 0.04 s⁻¹, else 0 (no) (ties count as 0 (no))

[[record]]
binder = "{CH2CO}-[dW]NSNVLSWQTYSWYCS (thioether N-15) [SEQ ID NO 38]"
qualitative_label = "1 (yes)"

[[record]]
binder = "{CH2CO}-[dW]NGTLSWQTYSHLCS (thioether N-14) [SEQ ID NO 39]"
qualitative_label = "1 (yes)"

[[record]]
binder = "{CH2CO}-[dW]AVSNLPPRPHITYIECS (thioether N-17) [SEQ ID NO 40]"
qualitative_label = "1 (yes)"

[[record]]
binder = "{CH2CO}-[dW]RPRVARWTGQIIYCS (thioether N-15) [SEQ ID NO 30]"
qualitative_label = "1 (yes)"

[[record]]
binder = "{CH2CO}-[dW]RVRVERWTGKLICS (thioether N-14) [SEQ ID NO 31]"
qualitative_label = "0 (no)"


Request: koff strictly < 0.04 s⁻¹ for this binder? {CH2CO}-[dW]RPRAARWTGQIIYCS (thioether N-15) [SEQ ID NO 37]
Response: 1 (yes)
